Source of measurements: ChEMBL document CHEMBL1201862

tested on: EKVX; assay: NCI tumour cell line growth inhibition, 48 h
The source made the active and inactive calls. No stated cut-off is given here; in the data, active = GI50 up to about 1.1 µM and inactive = higher.
Pick from true (active), false (inactive) when you respond.

Worked cases, answers included:
MOLECULE: O=NN1CCCS1(=O)=O
TESTED_SYSTEM: EKVX
DISCRETE_LABEL: false

MOLECULE: O=C(Cc1ccccc1)NN1C(=O)C(Cl)C1c1ccc(Cl)cc1 (centres undefined)
TESTED_SYSTEM: EKVX
DISCRETE_LABEL: false

MOLECULE: Cc1ccc2c(c1)C=CC1(O2)N(c2ccccc2)C(=S)OC1(C)C (centres undefined)
TESTED_SYSTEM: EKVX
DISCRETE_LABEL: false

Recorded test call requested for CC(C)[Si](Oc1ccc(CC2N(C(=O)c3ccc([N+](=O)[O-])cc3)C(CCc3ccccc3)CC2(C)C=O)cc1)(C(C)C)C(C)C (centres undefined)
false

Recorded test call requested for O=S(=O)(Nc1ccc2ccc3cccc4ccc1c2c34)c1ccccc1
false

Recorded test call requested for C=C(C)COC1CCCCO1 (centres undefined)
false

Recorded test call requested for CC1(C)C(=O)/C=C\C(=O)C(C)(C)C(=O)/C=C\C(=O)C(C)(C)C(=O)/C=C\C(=O)C(C)(C)C(=O)/C=C\C1=O
false

Recorded test call requested for COC(=O)C1=C(c2ccc(Cl)cc2)C(O)NC(NN)=N1 (centres undefined)
false

Recorded test call requested for CC(=O)NC1C(OCc2ccccc2)OC(CO)C(O)C1OCC(=O)N[C@@H](C)C(=O)N[C@H](CCC(=O)NCCNCCNc1c2ccccc2nc2cccc([N+](=O)[O-])c12)C(N)=O (some centres undefined)
false

Recorded test call requested for O=C(O)C(Cc1ccc2c(c1)CCC2)(Cc1ccc2c(c1)CCC2)C(=O)O
false

Recorded test call requested for CN1C/C(=C\c2ccc(C(=O)O)cc2)C(=O)/C(=C/c2ccc(C(=O)O)cc2)C1
false

Recorded test call requested for COC(=O)C1=C(OC)c2cc3c(cc2C(c2cc(OC)c(OC)c(OC)c2)C1C(=O)OC)OCO3 (centres undefined)
false

Recorded test call requested for COc1ccc(N2C(=O)C3c4[nH]c5ccccc5c4C4CCC(C(C)C)CC4C3C2=O)cc1 (centres undefined)
false

Recorded test call requested for CCN(CC)CCCC(C)Nc1c2ccc(Cl)cc2nc2ccc(OC)cc12 (centres undefined)
false

Recorded test call requested for CS(=O)(=O)NNS(=O)(=O)c1ccc(Cl)cc1
false

Recorded test call requested for CC(=O)OCCOCNC(=S)N/N=C(\C)c1cnc2ccccc2n1
false

Recorded test call requested for CC(C)CNC(=O)CCc1cccc2c1oc1c(CCN)cccc12
false

Recorded test call requested for CC(=O)N1NC(c2ccccc2)=CC(=O)/C1=C/C(=O)c1ccccc1
false

Recorded test call requested for C=C1CCC2CC1[C@@H](C(=O)c1c[nH]c3ccccc13)NC2(C)C (some centres undefined)
false

Recorded test call requested for CC(CC(=O)O)(CC(=O)O)C(=O)O
false
